Target: Recombinant human JAK2 catalytic domain (Homo sapiens (Human))
Test: JAK2 kinase assay (Z'-LYTE, Tyr 6 Peptide)
Format: biochemical

{"Compound": "CCS(=O)(=O)Nc1ccc(N(C)[C@@H]2CCN(c3ncnc4[nH]ccc34)C2)nc1 [Compound 210]", "Measurement Target": "Recombinant human JAK2 catalytic domain (Homo sapiens (Human))", "IC50": "1 to 100 nM"}

====

Target: Recombinant human JAK2 catalytic domain (Homo sapiens (Human), UniProt O60674)
Sequence (O60674 849-1124): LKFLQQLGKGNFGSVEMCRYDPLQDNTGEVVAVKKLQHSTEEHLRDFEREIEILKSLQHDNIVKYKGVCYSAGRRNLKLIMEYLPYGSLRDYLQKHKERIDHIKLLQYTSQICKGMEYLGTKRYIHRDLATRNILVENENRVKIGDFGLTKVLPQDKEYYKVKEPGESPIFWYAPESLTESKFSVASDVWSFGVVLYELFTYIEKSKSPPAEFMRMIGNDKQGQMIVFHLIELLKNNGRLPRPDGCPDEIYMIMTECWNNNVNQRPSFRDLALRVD
Experiment: JAK2 kinase assay (Z'-LYTE, Tyr 6 Peptide)
Type: biochemical
Conditions: read-out: IC50 in JAK2 kinase assay
# key: entry, value: IC50
Readout Kind: IC50

{"Molecule": "CN(C(=O)c1ccc(N(C)[C@@H]2CCN(c3ncnc4[nH]ccc34)C2)nc1)c1ccc(F)cc1 [Compound 178]", "Experimental Value": "100 to 1000 nM"}
{"Molecule": "CN(c1ccncn1)[C@@H]1CCN(c2ncnc3[nH]ccc23)C1 [Compound 154]", "Experimental Value": "100 to 1000 nM"}
{"Molecule": "CN(c1cccc(C#N)n1)[C@@H]1CCN(c2ncnc3[nH]ccc23)C1 [Compound 91]", "Experimental Value": "1 to 100 nM"}
{"Molecule": "C[C@H](NC(=O)c1ccc(N(C)[C@@H]2CCN(c3ncnc4[nH]ccc34)C2)c(F)c1)c1ccccc1 [Compound 182]", "Experimental Value": "1 to 100 nM"}
{"Molecule": "CN(c1ccc(C(=O)N[C@@H](CO)c2ccccc2)cc1F)[C@@H]1CCN(c2ncnc3[nH]ccc23)C1 [Compound 179]", "Experimental Value": "1 to 100 nM"}
{"Molecule": "CC(C)S(=O)(=O)Nc1ccc(N(C)[C@@H]2CCN(c3ncnc4[nH]ccc34)C2)nc1 [Compound 218]", "Experimental Value": "100 to 1000 nM"}
{"Molecule": "CN(c1ccc(C#N)c(Cl)n1)[C@@H]1CCN(c2ncnc3[nH]ccc23)C1 [Compound 90]", "Experimental Value": "100 to 1000 nM"}
{"Molecule": "CN(c1ncc(C#N)cc1Br)[C@@H]1CCN(c2ncnc3[nH]ccc23)C1 [Compound 99]", "Experimental Value": "1 to 100 nM"}
{"Molecule": "CN(c1ncc(C#N)cc1Cl)[C@@H]1CCN(c2ncnc3[nH]ccc23)C1 [Compound 83]", "Experimental Value": "100 to 1000 nM"}
{"Molecule": "CN(c1ccc(C#N)cc1)[C@@H]1CCN(c2ncnc3[nH]ccc23)C1 [Compound 104]", "Experimental Value": "1 to 100 nM"}
{"Molecule": "C#CCN(c1c(F)cc(C#N)cc1F)[C@@H]1CCN(c2ncnc3[nH]ccc23)C1 [Compound 129]", "Experimental Value": "1 to 100 nM"}
{"Molecule": "CN(C(=O)Nc1cccc(C#N)c1)[C@@H]1CCN(c2ncnc3[nH]ccc23)C1 [Compound 16]", "Experimental Value": "100 to 1000 nM"}
{"Molecule": "COC(=O)c1ccc(N(C)[C@@H]2CCN(c3ncnc4[nH]ccc34)C2)nc1 [Compound 168]", "Experimental Value": "1 to 100 nM"}
{"Molecule": "CN(c1ccc(S(=O)(=O)NC2CCOCC2)cn1)[C@@H]1CCN(c2ncnc3[nH]ccc23)C1 [Compound 259]", "Experimental Value": "100 to 1000 nM"}
{"Molecule": "CN(c1ccc(C(=O)Nc2ccccc2F)cn1)[C@@H]1CCN(c2ncnc3[nH]ccc23)C1 [Compound 192]", "Experimental Value": "1 to 100 nM"}
{"Molecule": "CN(c1ccc(S(=O)(=O)NC2CC2)cn1)[C@@H]1CCN(c2ncnc3[nH]ccc23)C1 [Compound 236]", "Experimental Value": "1 to 100 nM"}
{"Molecule": "CN(c1ccc(C(=O)NC(CO)c2ccc(Cl)cc2)cc1F)[C@@H]1CCN(c2ncnc3[nH]ccc23)C1 (stereo partly drawn) [Compound 201]", "Experimental Value": "1 to 100 nM"}
{"Molecule": "CN(c1ccc(C(=O)NC(CO)c2ccccc2Cl)cc1F)[C@@H]1CCN(c2ncnc3[nH]ccc23)C1 (stereo partly drawn) [Compound 207]", "Experimental Value": "100 to 1000 nM"}
{"Molecule": "CN(C1CCCC1)[C@@H]1CCN(c2ncnc3[nH]ccc23)C1 [Compound 53]", "Experimental Value": "100 to 1000 nM"}
{"Molecule": "CN([C@@H]1CCN(c2ncnc3[nH]ccc23)C1)S(=O)(=O)c1cccc(C#N)c1 [Compound 10]", "Experimental Value": "100 to 1000 nM"}
{"Molecule": "CN(c1nc(Cl)c(C#N)cc1F)[C@@H]1CCN(c2ncnc3[nH]ccc23)C1 [Compound 87]", "Experimental Value": "1 to 100 nM"}
{"Molecule": "CN(c1ccc(C(=O)NCCO)cn1)[C@@H]1CCN(c2ncnc3[nH]ccc23)C1 [Compound 190]", "Experimental Value": "1 to 100 nM"}
{"Molecule": "CN(c1ccc(Cl)cn1)[C@@H]1CCN(c2ncnc3[nH]ccc23)C1 [Compound 67]", "Experimental Value": "1 to 100 nM"}
{"Molecule": "CN(c1ccc(Cl)nn1)[C@@H]1CCN(c2ncnc3[nH]ccc23)C1 [Compound 85]", "Experimental Value": "100 to 1000 nM"}
{"Molecule": "CN(c1ncc(C#N)cc1[N+](=O)[O-])[C@@H]1CCN(c2ncnc3[nH]ccc23)C1 [Compound 96]", "Experimental Value": "100 to 1000 nM"}
{"Molecule": "CN(c1ccc(F)cn1)[C@@H]1CCN(c2ncnc3[nH]ccc23)C1 [Compound 66]", "Experimental Value": "1 to 100 nM"}
{"Molecule": "CN(c1ccc(C(=O)O)cn1)[C@@H]1CCN(c2ncnc3[nH]ccc23)C1 [Compound 170]", "Experimental Value": "100 to 1000 nM"}
{"Molecule": "CCCC(=O)N(C)[C@@H]1CCN(c2ncnc3[nH]ccc23)C1 [Compound 3]", "Experimental Value": "100 to 1000 nM"}
{"Molecule": "CN(c1ccc(NS(=O)(=O)c2ccc(F)cc2)cn1)[C@@H]1CCN(c2ncnc3[nH]ccc23)C1 [Compound 212]", "Experimental Value": "1 to 100 nM"}
{"Molecule": "C#CCN(c1ccc(C#N)cc1F)[C@@H]1CCN(c2ncnc3[nH]ccc23)C1 [Compound 130]", "Experimental Value": "100 to 1000 nM"}
{"Molecule": "CCOc1cnc(N(C)[C@@H]2CCN(c3ncnc4[nH]ccc34)C2)cn1 [Compound 136]", "Experimental Value": "100 to 1000 nM"}
{"Molecule": "CN(c1ccc2nc[nH]c2n1)[C@@H]1CCN(c2ncnc3[nH]ccc23)C1 [Compound 163]", "Experimental Value": "1 to 100 nM"}
{"Molecule": "CN(c1ncc(Br)cc1C#N)[C@@H]1CCN(c2ncnc3[nH]ccc23)C1 [Compound 89]", "Experimental Value": "100 to 1000 nM"}

====

Target: Recombinant human JAK3 catalytic domain (Homo sapiens (Human), UniProt P52333)
Sequence (P52333 822-1111): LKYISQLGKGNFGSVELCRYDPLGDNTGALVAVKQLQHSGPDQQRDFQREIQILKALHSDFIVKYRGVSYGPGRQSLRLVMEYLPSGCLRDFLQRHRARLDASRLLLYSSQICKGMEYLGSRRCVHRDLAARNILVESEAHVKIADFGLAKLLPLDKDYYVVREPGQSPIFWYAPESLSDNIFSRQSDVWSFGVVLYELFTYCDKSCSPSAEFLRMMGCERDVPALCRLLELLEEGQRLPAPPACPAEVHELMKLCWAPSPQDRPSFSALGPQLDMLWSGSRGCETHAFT
Test: JAK3 kinase assay (Z'-LYTE, Tyr 6 Peptide)
Assay type: biochemical
Conditions: read-out: IC50 in JAK3 kinase assay

{"Compound Smiles": "CN(c1nc(Cl)c(C#N)cc1F)[C@@H]1CCN(c2ncnc3[nH]ccc23)C1", "IC50": "0.1 to 1 µM"}
{"Compound Smiles": "CN(c1ccc(S(=O)(=O)NC2CC2)cn1)[C@@H]1CCN(c2ncnc3[nH]ccc23)C1", "IC50": "0.001 to 0.1 µM"}
{"Compound Smiles": "CN(c1ccc2nc[nH]c2n1)[C@@H]1CCN(c2ncnc3[nH]ccc23)C1", "IC50": "0.1 to 1 µM"}
{"Compound Smiles": "C#CCN(c1ccc(C#N)cc1)[C@@H]1CCN(c2ncnc3[nH]ccc23)C1", "IC50": "0.1 to 1 µM"}
{"Compound Smiles": "C[C@H](NC(=O)c1ccc(N(C)[C@@H]2CCN(c3ncnc4[nH]ccc34)C2)c(F)c1)c1ccccc1", "IC50": "0.001 to 0.1 µM"}
{"Compound Smiles": "CN(c1ncnc2ccccc12)[C@@H]1CCN(c2ncnc3[nH]ccc23)C1", "IC50": "0.1 to 1 µM"}
{"Compound Smiles": "CN(c1ccc([N+](=O)[O-])cn1)[C@@H]1CCN(c2ncnc3[nH]ccc23)C1", "IC50": "0.1 to 1 µM"}
{"Compound Smiles": "CN(c1ncc(C#N)cc1Br)[C@@H]1CCN(c2ncnc3[nH]ccc23)C1", "IC50": "0.1 to 1 µM"}
